Recorded glycan array binding signal (z-score) by entry
- tgt: Kdn(a2-3)Gal(b1-4)[Fuc(a1-3)]GlcNAc
- experimental_details: glycan array binding signal (z-score within array); higher = stronger binding
- condition: glycan notation: IUPAC condensed, linker removed
The sample as a whole holds a higher share of the strongest signals than the screen did.
Enter a number only.

| binder | measurement |
| --- | --- |
| Epa20 (Candida glabrata) (protein) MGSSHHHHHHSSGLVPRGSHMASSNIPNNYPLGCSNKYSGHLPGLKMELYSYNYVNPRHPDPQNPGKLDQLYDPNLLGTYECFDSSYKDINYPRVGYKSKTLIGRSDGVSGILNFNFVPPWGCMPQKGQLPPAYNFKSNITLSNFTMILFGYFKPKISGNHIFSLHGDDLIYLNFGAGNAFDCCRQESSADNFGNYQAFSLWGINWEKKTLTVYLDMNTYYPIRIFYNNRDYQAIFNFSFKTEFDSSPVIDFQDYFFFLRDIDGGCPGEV | 0.229 |
| HBHA-Rv (Mycobacterium tuberculosum), P0A5P6 (protein) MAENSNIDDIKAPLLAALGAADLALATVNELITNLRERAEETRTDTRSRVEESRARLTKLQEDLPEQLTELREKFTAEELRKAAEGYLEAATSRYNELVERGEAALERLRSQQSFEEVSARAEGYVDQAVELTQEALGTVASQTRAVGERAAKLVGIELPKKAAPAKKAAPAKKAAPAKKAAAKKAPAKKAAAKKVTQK | -0.371 |

# ---- query binder ----
For this binder ( Loc1 (Escherichia coli) (protein) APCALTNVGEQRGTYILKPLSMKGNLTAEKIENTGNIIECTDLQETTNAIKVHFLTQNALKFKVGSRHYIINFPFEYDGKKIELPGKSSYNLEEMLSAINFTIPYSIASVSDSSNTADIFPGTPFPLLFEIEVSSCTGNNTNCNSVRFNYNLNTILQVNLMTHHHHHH ), measured glycan array binding signal (z-score) is -0.405
